Provide the reported Percent Effect of each item.
Target or test system: Protein translocase subunit SecA (Escherichia coli (strain K12)) (UniProt P10408)
Sequence (P10408 whole entry): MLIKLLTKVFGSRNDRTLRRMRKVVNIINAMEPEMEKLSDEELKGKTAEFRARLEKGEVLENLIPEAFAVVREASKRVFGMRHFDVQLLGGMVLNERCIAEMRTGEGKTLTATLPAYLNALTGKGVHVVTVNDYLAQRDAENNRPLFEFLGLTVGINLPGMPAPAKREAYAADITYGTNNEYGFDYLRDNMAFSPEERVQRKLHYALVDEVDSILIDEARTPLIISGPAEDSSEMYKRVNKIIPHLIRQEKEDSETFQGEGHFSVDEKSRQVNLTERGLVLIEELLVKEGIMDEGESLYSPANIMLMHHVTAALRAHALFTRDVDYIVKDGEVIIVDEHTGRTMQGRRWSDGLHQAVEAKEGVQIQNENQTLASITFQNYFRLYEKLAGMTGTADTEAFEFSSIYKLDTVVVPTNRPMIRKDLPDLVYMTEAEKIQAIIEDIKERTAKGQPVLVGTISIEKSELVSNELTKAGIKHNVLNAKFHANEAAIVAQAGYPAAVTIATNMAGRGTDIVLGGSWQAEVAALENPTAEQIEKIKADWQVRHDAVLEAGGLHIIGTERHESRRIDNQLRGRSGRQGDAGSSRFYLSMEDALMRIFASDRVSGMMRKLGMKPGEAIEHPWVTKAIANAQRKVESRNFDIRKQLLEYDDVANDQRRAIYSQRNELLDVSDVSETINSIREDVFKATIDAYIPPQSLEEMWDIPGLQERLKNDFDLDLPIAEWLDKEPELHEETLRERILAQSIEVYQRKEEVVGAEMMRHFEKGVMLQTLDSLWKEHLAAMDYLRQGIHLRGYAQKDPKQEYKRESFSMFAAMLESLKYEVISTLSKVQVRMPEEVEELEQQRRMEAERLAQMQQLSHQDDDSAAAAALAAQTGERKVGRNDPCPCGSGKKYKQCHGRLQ
Protocol: Assay to Identify E. coli SecA ATPase Inhibitors
Type: functional
Parameters: scale not given: direction of the effect not stated beside the values
Assay context: 30 µM
Potency and affinity values are given separately.
// note: answer is a bare numeric in %

Asked: What Percent Effect appears in the records for this compound with Protein translocase subunit SecA (Escherichia coli (strain K12)) (UniProt P10408)? `O=C(NCC1CC1)[C@H]1C[C@H]2OCC[C@H]2N(CCc2ccccc2)C1`
Given back: -3.05

Asked: What Percent Effect appears in the records for this compound with Protein translocase subunit SecA (Escherichia coli (strain K12)) (UniProt P10408)? `c1ccc(CCCN2CC(n3cccn3)C2)cc1`
Given back: 0.15

Asked: What Percent Effect appears in the records for this compound with Protein translocase subunit SecA (Escherichia coli (strain K12)) (UniProt P10408)? `CCc1c(C(=O)N2CCN(CC(N)=O)CC2)cnn1C(C)(C)C`
Given back: -6.88

Asked: What Percent Effect appears in the records for this compound with Protein translocase subunit SecA (Escherichia coli (strain K12)) (UniProt P10408)? `COCCNC(=O)[C@@H]1CC[C@@H]2[C@@H](CCN2Cc2cnn(C)c2)O1`
Given back: -1.36

Asked: What Percent Effect appears in the records for this compound with Protein translocase subunit SecA (Escherichia coli (strain K12)) (UniProt P10408)? `CCc1nc(CCNC(=O)Nc2cc(C(N)=O)sc2C)cs1`
Given back: -6.09

Asked: What Percent Effect appears in the records for this compound with Protein translocase subunit SecA (Escherichia coli (strain K12)) (UniProt P10408)? `CC(C)N(C)Cc1cn2c(n1)CN(C(=O)Cc1ccsc1)CC2`
Given back: -5.71
